biological target: MLTK (human) (UniProt Q9NYL2); assay: radiometric filter-binding kinase assay, Kinase HotSpot; details: compound 0.5 µM; ATP 10 µM
Sequence (Q9NYL2 whole entry, looked up): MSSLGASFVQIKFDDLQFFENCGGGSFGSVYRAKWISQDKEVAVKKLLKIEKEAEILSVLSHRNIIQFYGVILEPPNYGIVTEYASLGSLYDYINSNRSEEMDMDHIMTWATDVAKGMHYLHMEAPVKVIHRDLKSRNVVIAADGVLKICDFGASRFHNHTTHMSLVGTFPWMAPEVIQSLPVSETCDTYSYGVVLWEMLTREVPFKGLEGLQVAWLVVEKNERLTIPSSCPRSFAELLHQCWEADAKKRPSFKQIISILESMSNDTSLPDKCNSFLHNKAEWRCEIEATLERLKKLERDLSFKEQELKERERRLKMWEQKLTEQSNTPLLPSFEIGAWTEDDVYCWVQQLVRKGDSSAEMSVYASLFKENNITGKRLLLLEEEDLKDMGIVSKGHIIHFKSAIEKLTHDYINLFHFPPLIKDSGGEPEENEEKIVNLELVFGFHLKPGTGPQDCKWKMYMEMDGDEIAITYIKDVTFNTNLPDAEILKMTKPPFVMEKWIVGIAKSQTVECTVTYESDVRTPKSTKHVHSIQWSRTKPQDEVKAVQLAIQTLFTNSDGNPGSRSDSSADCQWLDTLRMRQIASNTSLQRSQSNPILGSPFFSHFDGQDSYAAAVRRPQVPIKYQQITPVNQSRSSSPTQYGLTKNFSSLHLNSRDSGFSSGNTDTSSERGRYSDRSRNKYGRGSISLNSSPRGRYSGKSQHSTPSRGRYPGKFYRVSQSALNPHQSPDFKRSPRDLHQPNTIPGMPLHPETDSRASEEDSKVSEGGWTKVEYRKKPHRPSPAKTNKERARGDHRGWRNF
endpoint_name: residual activity (%)
Please respond with the number in % and leave the unit unwritten.

[in] Checklist item: residual activity tested on MLTK (human) (UniProt Q9NYL2), entry O=C1NC(=O)c2c1c1c3ccccc3[nH]c1n1cncc21 , value?
[out] 78.7

[in] Now consider Cc1cncc2cccc(S(=O)(=O)N3CCCN(C(=O)CN)C[C@H]3C)c12 .
[out] 108

[in] Repeat with COc1ccc(Cl)cc1NC(=O)Nc1cc(C)nc2ccccc12
[out] 99.7

[in] Now the molecule Fc1ccc(-c2nc3n(c2-c2ccncc2)CCS3)cc1
[out] 100

[in] Try this molecule too: Cc1nc(-c2ccccc2)c(-c2ccncc2)o1
[out] 89

[in] Can you handle Ic1cccc(CSc2nnc(-c3ccncc3)o2)c1 next?
[out] 96.7

[in] Subsequent entry: COc1cc2ncnc(Nc3ccc(Oc4ccccc4)cc3)c2cc1OC
[out] 95.2

[in] Do the same for Cc1cccc(-c2nc(C(C)(C)C)[nH]c2-c2ccc3c(c2)OCO3)n1 please
[out] 97.8

[in] Entry to check: CS(=O)(=O)CCNCc1ccc(-c2ccc3ncnc(Nc4ccc(OCc5cccc(F)c5)c(Cl)c4)c3c2)o1
[out] 96.7

[in] Next up: O=C1c2ccccc2-c2nc3nnnn3nc21
[out] 69.8

[in] Now give it for CN(C)CCCn1cc(C2=C(c3c[nH]c4ccccc34)C(=O)NC2=O)c2ccccc21 too.
[out] 93.1

###

Kindly state residual activity for each of the entries shown.
target: YES1 (human) (UniProt P07947); experiment: radiometric filter-binding kinase assay, Kinase HotSpot; conditions: compound 0.5 µM; ATP 10 µM
Sequence (P07947 whole entry, looked up): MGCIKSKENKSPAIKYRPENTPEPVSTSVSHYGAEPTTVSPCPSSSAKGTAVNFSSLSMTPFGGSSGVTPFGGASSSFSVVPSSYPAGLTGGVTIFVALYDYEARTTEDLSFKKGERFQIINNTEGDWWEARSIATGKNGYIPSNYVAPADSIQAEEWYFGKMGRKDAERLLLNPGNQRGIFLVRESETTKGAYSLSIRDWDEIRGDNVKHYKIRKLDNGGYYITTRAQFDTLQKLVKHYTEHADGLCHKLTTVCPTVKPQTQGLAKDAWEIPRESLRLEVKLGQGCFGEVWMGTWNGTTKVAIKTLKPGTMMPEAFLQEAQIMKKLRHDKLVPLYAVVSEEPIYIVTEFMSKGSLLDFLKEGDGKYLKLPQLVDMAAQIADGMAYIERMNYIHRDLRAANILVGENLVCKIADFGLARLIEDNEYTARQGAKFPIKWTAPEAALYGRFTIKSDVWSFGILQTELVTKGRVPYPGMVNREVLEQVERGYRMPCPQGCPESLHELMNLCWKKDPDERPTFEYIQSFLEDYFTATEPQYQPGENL
Report as a plain number; the unit % is understood.

[in] Which residual activity is reported for this compound? C[C@@H]1CCN(C(=O)CC#N)C[C@@H]1N(C)c1ncnc2[nH]ccc12
[out] 87.1

[in] // next record CO[C@@H]1[C@H](N(C)C(=O)c2ccccc2)C[C@H]2O[C@]1(C)n1c3ccccc3c3c4c(c5c6ccccc6n2c5c31)C(=O)NC4
[out] 20.6

[in] Please answer likewise for Fc1ccc(-c2nc3n(c2-c2ccncc2)CCS3)cc1
[out] 99.4

[in] Now give it for O=C1NC(=O)c2c1c1c3ccccc3[nH]c1n1cncc21 too.
[out] 79.9

[in] For Cn1c2ccccc2c2c3c(c4c5ccccc5n(CCC#N)c4c21)CNC3=O then?
[out] 68.7

[in] Let us now turn to Cc1cccc(-c2nc(C(C)(C)C)[nH]c2-c2ccc3c(c2)OCO3)n1
[out] 97

###

biological target: PRKACA (human) (UniProt P17612); test: radiometric filter-binding kinase assay, Kinase HotSpot; details: compound 0.5 µM; ATP 10 µM
For each entry below, report its residual activity value.
Please reply with the bare figure in % and do not write the unit itself.

[in] Which measured residual activity belongs to O=C1NC(=O)c2c1c1c3ccccc3[nH]c1n1cncc21 , tested on PRKACA (human) (UniProt P17612)?
[out] 98.2

[in] What about Ic1cccc(CSc2nnc(-c3ccncc3)o2)c1 ?
[out] 94.6

[in] Subsequent entry: COc1ccc(S(=O)(=O)N(CCO)c2ccccc2CN(C)C/C=C/c2ccc(Cl)cc2)cc1
[out] 104

[in] Another: O=C1Nc2ccc(Br)cc2/C1=C\c1cc2c([nH]1)CCCC2
[out] 96.5

[in] O=C(c1cc2cc(O)ccc2[nH]1)c1cc2cc(O)ccc2[nH]1 , same question.
[out] 107

[in] Also, COc1cc2ncnc(Nc3ccc(Oc4ccccc4)cc3)c2cc1OC please.
[out] 102

[in] Please do the same for CN(C)CCCn1cc(C2=C(c3c[nH]c4ccccc34)C(=O)NC2=O)c2ccccc21 as well.
[out] 72

###

biological target: UniProt:Q9Y4K4; assay: radiometric filter-binding kinase assay, Kinase HotSpot; conditions: compound 0.5 µM; ATP 10 µM
Sequence (Q9Y4K4 whole entry, looked up): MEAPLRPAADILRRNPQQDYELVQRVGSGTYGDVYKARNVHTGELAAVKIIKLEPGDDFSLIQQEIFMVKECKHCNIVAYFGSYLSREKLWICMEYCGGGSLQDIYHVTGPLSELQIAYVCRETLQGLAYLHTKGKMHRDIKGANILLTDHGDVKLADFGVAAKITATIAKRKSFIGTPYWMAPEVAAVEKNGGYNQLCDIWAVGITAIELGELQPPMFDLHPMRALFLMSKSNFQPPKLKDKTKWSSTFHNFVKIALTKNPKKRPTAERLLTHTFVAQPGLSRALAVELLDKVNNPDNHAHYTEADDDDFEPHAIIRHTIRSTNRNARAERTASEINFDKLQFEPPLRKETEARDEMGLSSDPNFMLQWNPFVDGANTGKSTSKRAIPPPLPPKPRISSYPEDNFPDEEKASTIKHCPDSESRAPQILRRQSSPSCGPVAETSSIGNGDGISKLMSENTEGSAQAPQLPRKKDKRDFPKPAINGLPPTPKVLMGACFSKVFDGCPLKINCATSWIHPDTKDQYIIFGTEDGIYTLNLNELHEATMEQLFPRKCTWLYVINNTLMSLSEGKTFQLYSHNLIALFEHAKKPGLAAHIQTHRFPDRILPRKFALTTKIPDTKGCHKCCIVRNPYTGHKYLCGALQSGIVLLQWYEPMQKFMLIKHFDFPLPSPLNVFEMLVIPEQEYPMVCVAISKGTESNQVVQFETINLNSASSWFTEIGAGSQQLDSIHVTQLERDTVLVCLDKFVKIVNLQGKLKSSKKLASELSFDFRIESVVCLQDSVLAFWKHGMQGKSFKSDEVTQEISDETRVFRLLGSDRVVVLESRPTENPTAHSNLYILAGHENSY
Can you tell me residual activity for the items I'm about to list?
Enter your answer as a number in %; do not include the unit.

[in] Looking for the measured residual activity of Cc1nc(-c2ccccc2)c(-c2ccncc2)o1 , can you help?
[out] 96.2

[in] // same read-out, input: COc1ccc(C(=O)Nc2sc3c(c2C(N)=O)CCCC3)cc1OC
[out] 94.3

[in] Another: O=C1C(Cl)=C(N2C(=O)CCC2=O)C(=O)c2ccccc21
[out] 90.4

[in] Then what about the compound Cc1cncc2cccc(S(=O)(=O)N3CCCN(C(=O)CN)C[C@H]3C)c12 ?
[out] 103

[in] Now give it for CN(C)CCCn1cc(C2=C(c3c[nH]c4ccccc34)C(=O)NC2=O)c2ccccc21 too.
[out] 68.5

[in] And COc1ccc2c(c1)c(C1=C(c3c[nH]c4ccccc34)C(=O)NC1=O)cn2CCCN(C)C ?
[out] 27.7

[in] Follow-up item: Cn1c2ccccc2c2c3c(c4c5ccccc5n(CCC#N)c4c21)CNC3=O
[out] 4.18

[in] // next record CC(C)(C)c1cc(C=C(C#N)C#N)cc(Br)c1O
[out] 95.8

###

Answer each item with its documented residual activity.
biological target: ACVRL1 (human) (UniProt P37023); experiment: radiometric filter-binding kinase assay, Kinase HotSpot; conditions: compound 0.5 µM; ATP 10 µM
Sequence (P37023 whole entry, looked up): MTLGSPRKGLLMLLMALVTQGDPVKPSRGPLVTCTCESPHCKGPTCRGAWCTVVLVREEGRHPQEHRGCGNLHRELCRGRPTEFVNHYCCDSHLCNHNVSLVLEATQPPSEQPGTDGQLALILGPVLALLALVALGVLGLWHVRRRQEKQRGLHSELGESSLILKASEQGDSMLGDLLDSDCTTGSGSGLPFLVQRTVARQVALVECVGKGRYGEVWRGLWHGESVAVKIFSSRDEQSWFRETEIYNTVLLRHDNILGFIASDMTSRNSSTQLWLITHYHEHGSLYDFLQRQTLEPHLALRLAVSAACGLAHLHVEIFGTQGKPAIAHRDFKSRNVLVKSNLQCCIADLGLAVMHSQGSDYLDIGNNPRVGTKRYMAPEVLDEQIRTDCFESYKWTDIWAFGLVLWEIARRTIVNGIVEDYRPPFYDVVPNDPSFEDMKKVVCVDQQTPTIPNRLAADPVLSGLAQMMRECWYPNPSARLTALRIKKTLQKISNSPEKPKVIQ
Give a bare numeral; the unit % is implied.

[in] Record lookup: for ACVRL1 (human) (UniProt P37023), what residual activity belongs to CN(C)CCCn1cc(C2=C(c3c[nH]c4ccccc34)C(=O)NC2=O)c2ccccc21 ?
[out] 107

[in] Now give it for CCCCc1c(-c2ccc(OC)cc2)[nH]c2nccnc12 too.
[out] 77

[in] Next: COc1cc2ncnc(Nc3ccc(Oc4ccccc4)cc3)c2cc1OC
[out] 100

[in] # repeat for Cc1cncc2cccc(S(=O)(=O)N3CCCN(C(=O)CN)C[C@H]3C)c12
[out] 99.2

[in] Do the same for CO[C@@H]1[C@H](N(C)C(=O)c2ccccc2)C[C@H]2O[C@]1(C)n1c3ccccc3c3c4c(c5c6ccccc6n2c5c31)C(=O)NC4 please
[out] 94.3

[in] Cool, now Cn1c2ccccc2c2c3c(c4c5ccccc5n(CCC#N)c4c21)CNC3=O
[out] 73.6

[in] Moving on to the next compound: COc1cc(Nc2c(C#N)cnc3cc(OCCCN4CCN(C)CC4)c(OC)cc23)c(Cl)cc1Cl
[out] 67.6

[in] Now consider O=C(c1cc2cc(O)ccc2[nH]1)c1cc2cc(O)ccc2[nH]1 .
[out] 98.4

###

molecular target: CSNK1A1 (human) (UniProt P48729); assay: radiometric filter-binding kinase assay, Kinase HotSpot; conditions: compound 0.5 µM; ATP 10 µM
Sequence (P48729 whole entry, looked up): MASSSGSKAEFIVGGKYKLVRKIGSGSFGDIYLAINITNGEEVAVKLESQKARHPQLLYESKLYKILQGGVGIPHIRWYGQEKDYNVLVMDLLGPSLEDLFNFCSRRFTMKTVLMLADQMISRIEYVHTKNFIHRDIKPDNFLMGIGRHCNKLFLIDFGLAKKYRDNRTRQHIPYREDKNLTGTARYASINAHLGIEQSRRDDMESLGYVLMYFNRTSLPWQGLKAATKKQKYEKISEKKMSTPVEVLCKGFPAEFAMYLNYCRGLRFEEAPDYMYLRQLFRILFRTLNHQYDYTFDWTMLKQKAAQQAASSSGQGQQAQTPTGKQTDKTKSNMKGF
endpoint_name: residual activity (%)
Give the value in % but do not write % after it.

[in] Please report the recorded residual activity for Cc1cccc(-c2nc(C(C)(C)C)[nH]c2-c2ccc3c(c2)OCO3)n1 .
[out] 96.5

[in] Query O=C1c2ccccc2-c2nc3nnnn3nc21 next
[out] 85.8

[in] Similarly, COc1ccc(Cl)cc1NC(=O)Nc1cc(C)nc2ccccc12 ?
[out] 101

[in] Please answer likewise for CN(C)CCCn1cc(C2=C(c3c[nH]c4ccccc34)C(=O)NC2=O)c2ccccc21
[out] 96.5

[in] Entry to check: O=C1C(Cl)=C(N2C(=O)CCC2=O)C(=O)c2ccccc21
[out] 99.2

[in] Can you check N#C/C(=C\c1ccc(O)c(O)c1)C(=O)NCc1ccccc1 next?
[out] 110

###

molecular target: FGFR3 (human); assay: radiometric filter-binding kinase assay, Kinase HotSpot; settings: compound 0.5 µM; ATP 10 µM
endpoint_name: residual activity (%)
Write the answer as a number in %, unit excluded.

[in] Recorded residual activity for C[C@@H]1CCN(C(=O)CC#N)C[C@@H]1N(C)c1ncnc2[nH]ccc12 , please?
[out] 95.3

[in] Let us now turn to CN(C)S(=O)(=O)c1ccc2c(c1)/C(=C/c1cc3c([nH]1)CCCC3)C(=O)N2
[out] 57.1

[in] Now this one: Ic1cccc(CSc2nnc(-c3ccncc3)o2)c1
[out] 106

[in] And what about the molecule O=C1Nc2ccc(Br)cc2/C1=C\c1cc2c([nH]1)CCCC2 ?
[out] 55.8

[in] Likewise for c1ccc2c(-c3ccncc3)c[nH]c2c1 ?
[out] 98.9

[in] Same again, this time with CCCCc1c(-c2ccc(OC)cc2)[nH]c2nccnc12
[out] 86.8

[in] What about this molecule? Cc1cccc(-c2nc(C(C)(C)C)[nH]c2-c2ccc3c(c2)OCO3)n1
[out] 96.6

[in] Entry to check: CN(C)CCCn1cc(C2=C(c3c[nH]c4ccccc34)C(=O)NC2=O)c2ccccc21
[out] 87.9

[in] Please answer likewise for N#C/C(=C\c1ccc(O)c(O)c1)C(=O)NCc1ccccc1
[out] 98.2

[in] Thanks! And O=C1NC(=O)c2c1c1c3ccccc3[nH]c1n1cncc21 ?
[out] 85

[in] Same lookup for N#Cc1c[nH]c2c[nH]/c(=N\Cc3cccnc3)cc2/c1=N\c1ccc(F)c(Cl)c1 , please.
[out] 91.7

[in] Entry to check: COc1ccc2c(c1)c(C1=C(c3c[nH]c4ccccc34)C(=O)NC1=O)cn2CCCN(C)C
[out] 87.5

[in] Field entry: O=C1c2ccccc2-c2nc3nnnn3nc21
[out] 26.7

[in] Follow-up entry: Fc1ccc(-c2nc3n(c2-c2ccncc2)CCS3)cc1
[out] 91.8

[in] Another molecule to check: Cc1nc(-c2ccccc2)c(-c2ccncc2)o1
[out] 95.6

[in] Repeat for the following molecule: CS(=O)(=O)CCNCc1ccc(-c2ccc3ncnc(Nc4ccc(OCc5cccc(F)c5)c(Cl)c4)c3c2)o1
[out] 96.7

[in] Now consider O=C1C(Cl)=C(N2C(=O)CCC2=O)C(=O)c2ccccc21 .
[out] 106

[in] Further, for O=C(c1cc2cc(O)ccc2[nH]1)c1cc2cc(O)ccc2[nH]1 ?
[out] 92.1

[in] Proceed to NC(=O)c1cccc(-c2cc(Nc3ccc(OC(F)(F)F)cc3)ncn2)c1
[out] 93.2

[in] Next: Cc1cncc2cccc(S(=O)(=O)N3CCCN(C(=O)CN)C[C@H]3C)c12
[out] 97.7

[in] Moving on to CC(C)(C)c1cc(C=C(C#N)C#N)cc(Br)c1O
[out] 92.8

[in] What about this molecule? COc1ccc2c(c1)/C(=C/c1cnc[nH]1)C(O)=N2
[out] 65

[in] Try this molecule next: COc1ccc(S(=O)(=O)N(CCO)c2ccccc2CN(C)C/C=C/c2ccc(Cl)cc2)cc1
[out] 70.1

[in] Try COc1ccc(Cl)cc1NC(=O)Nc1cc(C)nc2ccccc12 next.
[out] 96.3
